Target: T1, human Dectin-1 (biosensor tests of Tables 3, 4A and 9; construct not stated) (human, UniProt Q9BXN2 66-247, limits assumed);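 note: Single-point dissociation rate (koff) fit for each variant binding domain, expressed as change versus the parental clone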
T1 construct: also called hDectin-1
T1 sequence (looked up): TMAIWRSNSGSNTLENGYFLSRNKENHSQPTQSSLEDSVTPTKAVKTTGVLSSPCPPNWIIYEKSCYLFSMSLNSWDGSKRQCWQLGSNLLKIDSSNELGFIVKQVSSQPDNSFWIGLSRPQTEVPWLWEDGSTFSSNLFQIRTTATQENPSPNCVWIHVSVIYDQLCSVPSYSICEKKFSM
Assay: Octet
assay endpoint: delta (%)

binder	assay endpoint	reading
2M24A.1.6 hFab (Fab, V domains shown, Fab; also called 2M24.1.6) VH: QVQLVQSGAEVKKPGASVKVSCKSSGYTFTAYYIHWVRQAPGQGLEWMGWINPNSGDTNYAQKFQGRITMTRDTSISTAYLELSRLRSDDTAVFYCARNSGSYSFGYWGQGTLVTVSS VL: DIQMTQSPSSVSASVGDRVTITCRASQGISSWLAWYQQKPGKAPKLLIFGASSLQSGVPSRFSGSGSGTDFTLTVSSLQPEDFATYYCQQAFSFPFTFGPGTKVDIE	delta	21
2M24A.1.26 (Fab, V domains shown, Fab; also called 2M24.1.26) VH: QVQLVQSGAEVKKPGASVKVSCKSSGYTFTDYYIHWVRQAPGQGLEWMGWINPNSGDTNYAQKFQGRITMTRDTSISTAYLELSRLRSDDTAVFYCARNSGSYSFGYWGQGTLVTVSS VL: DIQMTQSPSSVSASVGDRVTITCRASQGISSWLAWYQQKPGKAPKLLIFGASSLQSGVPSRFSGSGSGTDFTLTVSSLQPEDFATYYCQQAYSAPFTFGPGTKVDIE	delta	92
2M24A.1.18 (Fab, V domains shown, Fab; also called 2M24.1.18) VH: QVQLVQSGAEVKKPGASVKVSCKSSGYTFTDYYIHWVRQAPGQGLEWMGWINPNSGDTNYAQKFQGRITMTRDTSISTAYLELSRLRSDDTAVFYCARNSGAYSFGYWGQGTLVTVSS VL: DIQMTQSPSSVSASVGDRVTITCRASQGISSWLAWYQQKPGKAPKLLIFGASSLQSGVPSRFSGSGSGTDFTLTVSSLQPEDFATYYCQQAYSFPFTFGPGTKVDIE	delta	9
2M24A.1.20 (Fab, V domains shown, Fab; also called 2M24.1.20) VH: QVQLVQSGAEVKKPGASVKVSCKSSGYTFTDYYIHWVRQAPGQGLEWMGWINPNSGDTNYAQKFQGRITMTRDTSISTAYLELSRLRSDDTAVFYCARNSGSYSAGYWGQGTLVTVSS VL: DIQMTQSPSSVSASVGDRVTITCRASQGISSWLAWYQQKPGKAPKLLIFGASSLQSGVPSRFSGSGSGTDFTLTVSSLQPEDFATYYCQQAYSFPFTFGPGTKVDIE	delta	78
2M24A.1.16 (Fab, V domains shown, Fab; also called 2M24.1.16) VH: QVQLVQSGAEVKKPGASVKVSCKSSGYTFTDYYIHWVRQAPGQGLEWMGWINPNSGDTNYAQKFQGRITMTRDTSISTAYLELSRLRSDDTAVFYCARNAGSYSFGYWGQGTLVTVSS VL: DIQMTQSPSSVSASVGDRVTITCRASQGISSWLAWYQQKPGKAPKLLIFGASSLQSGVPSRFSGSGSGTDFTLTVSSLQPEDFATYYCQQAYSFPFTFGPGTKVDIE	delta	5
2M24A.1.19 (Fab, V domains shown, Fab; also called 2M24.1.19) VH: QVQLVQSGAEVKKPGASVKVSCKSSGYTFTDYYIHWVRQAPGQGLEWMGWINPNSGDTNYAQKFQGRITMTRDTSISTAYLELSRLRSDDTAVFYCARNSGSYAFGYWGQGTLVTVSS VL: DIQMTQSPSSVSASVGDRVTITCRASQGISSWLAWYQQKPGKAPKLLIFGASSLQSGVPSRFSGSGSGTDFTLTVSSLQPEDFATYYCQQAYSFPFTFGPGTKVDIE	delta	22
2M24A.1.21 (Fab, V domains shown, Fab; also called 2M24.1.21) VH: QVQLVQSGAEVKKPGASVKVSCKSSGYTFTDYYIHWVRQAPGQGLEWMGWINPNSGDTNYAQKFQGRITMTRDTSISTAYLELSRLRSDDTAVFYCARNSGSYSFAYWGQGTLVTVSS VL: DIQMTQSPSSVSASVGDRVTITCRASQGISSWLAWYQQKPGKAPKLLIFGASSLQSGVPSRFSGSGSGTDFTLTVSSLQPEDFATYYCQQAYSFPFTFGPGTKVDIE	delta	8
2M24A.1.25 (Fab, V domains shown, Fab; also called 2M24.1.25) VH: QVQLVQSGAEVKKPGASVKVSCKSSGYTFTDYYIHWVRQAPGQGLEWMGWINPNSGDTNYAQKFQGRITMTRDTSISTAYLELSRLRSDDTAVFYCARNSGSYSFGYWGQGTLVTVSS VL: DIQMTQSPSSVSASVGDRVTITCRASQGISSWLAWYQQKPGKAPKLLIFGASSLQSGVPSRFSGSGSGTDFTLTVSSLQPEDFATYYCQQAYAFPFTFGPGTKVDIE	delta	9
2M24A.1.5 hFab (Fab, V domains shown, Fab; also called 2M24.1.5) VH: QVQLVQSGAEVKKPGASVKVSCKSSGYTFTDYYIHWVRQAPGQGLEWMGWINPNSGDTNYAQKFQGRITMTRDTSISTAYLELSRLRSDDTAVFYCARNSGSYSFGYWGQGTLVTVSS VL: DIQMTQSPSSVSASVGDRVTITCRASQGISSWLAWYQQKPGKAPKLLIFGASSLQSGVPSRFSGSGSGTDFTLTVSSLQPEDFATYYCQQAASFPFTFGPGTKVDIE	delta	95
2M24A.1.2 hFab (Fab, V domains shown, Fab; also called 2M24.1.2) VH: QVQLVQSGAEVKKPGASVKVSCKSSGYTFTDYYIHWVRQAPGQGLEWMGWINPNSGATNYAQKFQGRITMTRDTSISTAYLELSRLRSDDTAVFYCARNSGSYSFGYWGQGTLVTVSS VL: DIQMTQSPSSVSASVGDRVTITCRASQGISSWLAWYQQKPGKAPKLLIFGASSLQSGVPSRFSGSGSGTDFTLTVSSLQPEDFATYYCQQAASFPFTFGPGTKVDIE	delta	98
